Tested on: LOX IMVI melanoma
Test: NCI-60 one-dose screen, 48 h
Details: 10 µM unless noted
This is part of a sample that, as a whole, favours compounds with a hit. Of some 83,000 tested, about 20% had one in any assay. Calls of active or inactive are those of the source. How the source made its calls: active means growth percent below 10; inactive means the rest.
In this exercise, the only acceptable responses are 1 (active), -1 (inactive)

Answer briefly: the call reported for Cc1nc2sccn2c1-c1nc2sccn2c1/C=C1/C(=O)Nc2ccccc21 in this assay.
-1

Answer briefly: the call reported for c1ccc(-c2c(-c3ccccc3)[n+](Cc3ccc4ccccc4c3)c(-c3cccc4ccccc34)n2Cc2ccc3ccccc3c2)cc1 in this assay.
1

Answer briefly: the call reported for CN1C(N2CCN(S(=O)(=O)c3ccccc3)CC2)=NS(=O)(=O)c2ccccc21 in this assay.
-1

New cases:
Answer briefly: the call reported for Oc1cccc(CCc2ccc(Oc3cc(CCc4cccc(O)c4)cc(O)c3O)cc2)c1 in this assay.
-1

Answer briefly: the call reported for CN1CCC(=C(c2ccccc2)c2ccccc2)C(c2ccccc2)C1 (stereo not given) in this assay.
-1
